- tested on: UniProt:P07711
- Sequence (P07711 114-333): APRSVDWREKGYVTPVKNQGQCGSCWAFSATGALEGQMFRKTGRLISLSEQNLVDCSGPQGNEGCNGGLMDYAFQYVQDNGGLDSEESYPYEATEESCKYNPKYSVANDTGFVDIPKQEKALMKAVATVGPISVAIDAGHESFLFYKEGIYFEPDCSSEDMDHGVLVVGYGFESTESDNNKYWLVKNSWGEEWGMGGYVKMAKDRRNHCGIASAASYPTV
measured quantity: IC50 (µM)

smiles_representation=CC(=O)N[C@@H](Cc1ccccc1)C(=O)NCC#N tested_on=UniProt:P07711 reading=72

====

- tested on: human cathepsin B in hBMSC lysates (Homo sapiens, UniProt P07858)
- Construct: lysates from primary human bone marrow stromal cells (hBMSC), an important source of cathepsin activity; endogenous in cells
- test method notes: Cathepsin B activity in hBMSC lysates, Z-Arg-Arg-AMC
- measurement parameters: hBMSC lysate, without irradiation (dark)
measured quantity: IC50 (µM)

smiles_representation=CC(=O)N[C@@H](Cc1ccccc1)C(=O)NCC#N tested_on="human cathepsin B in hBMSC lysates (Homo sapiens, UniProt P07858)" reading=183

====

- tested on: human cathepsin B (Homo sapiens, UniProt P07858)
pIC50: −log10 of the molar value.
measured quantity: pIC50

smiles_representation=CC(=O)N[C@@H](Cc1ccccc1)C(=O)NCC#N reading=3.88

====

- tested on: human cathepsin K (Homo sapiens, UniProt P43235)
- Sequence (P43235 115-329): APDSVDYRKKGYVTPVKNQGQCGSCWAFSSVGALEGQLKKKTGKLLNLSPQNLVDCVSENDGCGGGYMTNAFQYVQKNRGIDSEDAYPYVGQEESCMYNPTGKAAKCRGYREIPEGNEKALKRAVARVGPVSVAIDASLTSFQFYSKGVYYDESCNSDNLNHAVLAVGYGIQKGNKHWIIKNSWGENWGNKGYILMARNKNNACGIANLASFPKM
measured quantity: IC50 (µM)

compound="CC(=O)N[C@@H](Cc1ccccc1)C(=O)NCC#N [compound 1]" measured_quantity=IC50 units=µM reading=12
